Values were extracted from paper PMC7645423.

Target: CYP2C9 (Homo sapiens)
Sequence (P11712 whole entry): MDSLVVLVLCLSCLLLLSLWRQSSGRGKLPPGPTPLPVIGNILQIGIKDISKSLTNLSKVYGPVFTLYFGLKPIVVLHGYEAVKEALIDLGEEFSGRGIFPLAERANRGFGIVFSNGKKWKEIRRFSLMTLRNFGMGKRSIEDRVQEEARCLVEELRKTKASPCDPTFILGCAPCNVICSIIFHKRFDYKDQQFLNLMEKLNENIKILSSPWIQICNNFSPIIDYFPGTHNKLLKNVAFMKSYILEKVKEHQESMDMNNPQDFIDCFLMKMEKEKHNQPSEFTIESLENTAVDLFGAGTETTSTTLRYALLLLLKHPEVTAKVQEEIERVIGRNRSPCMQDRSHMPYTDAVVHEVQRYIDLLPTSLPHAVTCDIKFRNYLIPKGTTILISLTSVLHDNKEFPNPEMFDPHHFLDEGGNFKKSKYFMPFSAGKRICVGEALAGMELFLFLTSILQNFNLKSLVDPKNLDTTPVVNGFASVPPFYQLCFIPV
Observation Type: IC50

Query: Fill in the blank: the reported IC50 of CC[C@@H]1CN2CCc3c([nH]c4cccc(OC)c34)[C@@H]2C[C@@H]1/C(=C\OC)C(=O)OC [Mitragynine, mitragynine] is ____.
Result: 10 to 100 µM

---

Target: human κ-opioid receptor (Homo sapiens, UniProt P41145)
Sequence (P41145 whole entry): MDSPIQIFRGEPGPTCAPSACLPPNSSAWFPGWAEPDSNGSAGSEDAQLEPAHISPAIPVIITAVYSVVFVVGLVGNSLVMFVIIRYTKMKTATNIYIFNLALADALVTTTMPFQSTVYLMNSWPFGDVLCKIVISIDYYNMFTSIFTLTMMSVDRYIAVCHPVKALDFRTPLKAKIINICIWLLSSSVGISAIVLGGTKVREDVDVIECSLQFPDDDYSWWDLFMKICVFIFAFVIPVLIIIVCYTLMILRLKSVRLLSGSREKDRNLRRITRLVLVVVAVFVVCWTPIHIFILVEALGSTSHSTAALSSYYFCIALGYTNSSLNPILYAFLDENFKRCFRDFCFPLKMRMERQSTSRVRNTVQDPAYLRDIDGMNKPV
Observation Type: pKi
pKi here: minus log base 10 of the concentration, concentration in moles per litre.

Query: Fill in the blank: the reported pKi of CC[C@@H]1CN2CCc3c([nH]c4cccc(OC)c34)[C@@H]2C[C@@H]1/C(=C\OC)C(=O)OC is ____.
Result: 6.32
